meta.source: PubChem BioAssay (NCI)

Recorded measurements of growth inhibition, one per entry
assay: NCI Yeast Anticancer Drug Screen. Data for the sgs1 mgt1 strain (AID 161);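 further: 0% = growth of cultures given vehicle only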; settings: S. cerevisiae sgs1 mgt1 strain, at 50.0 µM, stronger effect = higher value
This is part of a sample that, as a whole, favours compounds with a hit. Of some 79,000 tested, about 15% had one in any assay.
// return numeric value only (unit: %, not printed)

Below are worked cases with known answers.
| molecule | quantity.kind | reading |
| --- | --- | --- |
| CCCCCCCC(=O)Oc1ccccc1 | growth inhibition | -0.75 |
| COC(=O)CCC(NC(=S)N/N=C(\C)c1cccs1)C(=O)OC (centres undefined) | growth inhibition | 17.3 |
| CP(=O)(CCSc1ccccc1)c1ccccc1 (centres undefined) | growth inhibition | -0.85 |

Reported growth inhibition, molecule COC(=O)C(=O)c1c(C(=O)OC)nc2nnc(N)n2c1-c1ccc(OC)cc1 : ____ -0.5

Thanks! And O=[N+]([O-])CC1=CCCCC1 ? 25.9

Next molecule: Nc1cccc(N)n1.[Cu+2] -13.8

Try the molecule COc1ccc2nc3cc(Cl)ccc3c(NCCCNCCCNc3c4ccc(Cl)cc4nc4ccc(OC)cc34)c2c1 -9.1

Follow-up item: O=C(/C=C/c1ccc(OCCCOc2ccc(/C=C/C(=O)c3ccccc3)cc2)cc1)c1ccccc1 -4.25

Then this molecule: CC(CCCSC(=N)N)SC(=N)N (centres undefined) -0.3

Similarly, Cc1ccc(Cl)c2c1C(=O)c1ccccc1C2=O ? 3.3

Now consider CC1CN=C(N(C(=O)Nc2ccc(Cl)c(Cl)c2)c2ccccc2)S1 (centres undefined) and answer again. -5.7

Try this molecule next: Brc1ccc(Br)nc1 -10.1

Quick one: COC(=O)C1C2CC3c4[nH]c5cc(OC)ccc5c4CCN3CC2CC(OC(=O)CCc2cc(OC)c(OC)c(OC)c2)C1OC (centres undefined) 4.25

---

experiment: NCI Yeast Anticancer Drug Screen. Data for the rad50 strain (AID 155);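 further: 0% = growth of vehicle-only cultures of the same strain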; settings: S. cerevisiae rad50 strain growth inhibition; at 50.0 µM; stronger effect = higher value
About 79,000 compounds went through this panel and 15% of them were active in at least one assay; those are over-represented in the sample as a whole.
Listed here: items and their measured growth inhibition.
Write the number in % without appending the unit.

// solved cases for growth inhibition follow
| molecule | quantity.kind | reading |
| --- | --- | --- |
| CCOC(=O)C(CCCOC1CCCCO1)(C(=O)CC)c1ccccc1 (centres undefined) (tested in a mixture with another compound) | growth inhibition | 25.4 |
| C/C(Cc1ccccc1)=N\NS(=O)(=O)c1ccc(C)cc1 | growth inhibition | 44.4 |
| Cc1ccc(N2C(=O)/C(=C/c3ccc(N(CCC#N)CCC#N)cc3C)N=C2c2cc([N+](=O)[O-])ccc2Cl)cc1 | growth inhibition | 8.85 |
| CCOC(=O)CC(=O)Nc1cccc2sc3ncccc3c(=O)c12 | growth inhibition | -35.4 |
| C/C(CCC(=O)O)=N\NC(=O)COc1ccc(Cl)cc1Cl | growth inhibition | 31.4 |

Now let's try a different one.
Please report the recorded growth inhibition for CC(=O)OCCCC(CCCOC(C)=O)OC(C)=O . -7.7

---

assay: NCI Yeast Anticancer Drug Screen. Data for the mlh1 rad18 strain (AID 175); conditions: S. cerevisiae mlh1 rad18 strain growth inhibition; at 50.0 µM; stronger effect = higher value
About 79,000 compounds went through this panel and 15% of them were active in at least one assay; those are over-represented in the sample as a whole.
quantity.kind: growth inhibition (%)
Enter your answer as a number in %; do not include the unit.

// below: answered molecules
| molecule | growth inhibition [%] |
| --- | --- |
| COC(=O)C1=CO[C@@H](C)[C@@H]2CN3CCc4c([nH]c5ccc(OC)cc45)[C@@H]3C[C@H]12 | -16.4 |
| CN1CCC(C(O)c2ccccc2)CC1 (stereo unspecified) | 5.5 |
| O=c1[nH]c2nc3ccccc3c(=O)n2/c1=C/c1ccc(O)cc1 | -19.8 |
| C(=N\c1nccs1)/c1ccc(/C=N/c2nccs2)cc1 | 7 |
| CCN(CC)CCN(C)CCN(CC)CC | 17.6 |
| O=C1C(O)=C(Cl)C(=O)C(O)=C1Cl.[Zn+2] | -26.8 |
| CCC(CCc1ccc(OC)c(OC)c1)C(=O)O (stereo unspecified) | 9.15 |
| O=c1nc(NC2CC2)ccn1C1OC(CO)C(O)C1O (stereo unspecified) | -20.9 |

Consider the molecule CCCCCCCCCCCCCCCCN1c2ccccc2C(C)(C)C12C=Cc1cccc([N+](=O)[O-])c1O2 (stereo unspecified) and give its measured growth inhibition. -3.2

// query: Cc1ccc2c(c1)C(OC(=O)Nc1ccccc1)CCC2 (stereo unspecified) 5.1

Cool, now c1ccc(C2(c3ccccc3)c3ccccc3-c3ccccc32)cc1 2.2
